# PROTOCOL_TEXT: Inhibition of porcine pancreatic lipase type 2 using p-nitrophenyl laurate as substrate after 2 hrs by UV spectrophotometric analysis
# Design: species or system Sus scrofa
# CONDITIONS: read-out: IC50
MEASUREMENT_KIND: pIC50
# log scale: pIC50 equals minus log10 of the concentration in mol/L

Exam item: Recorded pIC50 of CCCCCCCCCCC[C@@H](C[C@@H]1OC(=O)[C@H]1CCCCCC)OC(=O)[C@H](CC(C)C)NC=O , please.
Marked response: 4.21

Exam item: Recorded pIC50 of CCOC(=O)N1C/C(=C\c2cn(Cc3ccccc3F)c3ccccc23)C(=O)/C(=C/c2cn(Cc3ccccc3F)c3ccccc23)C1 , please.
Marked response: 4.25

Exam item: Recorded pIC50 of CCOC(=O)N1C/C(=C\c2cn(Cc3ccc([N+](=O)[O-])cc3)c3ccccc23)C(=O)/C(=C/c2cn(Cc3ccc([N+](=O)[O-])cc3)c3ccccc23)C1 , please.
Marked response: 4.51

Exam item: Recorded pIC50 of CCOC(=O)N1C/C(=C\c2cn(Cc3ccc(Cl)cc3Cl)c3ccccc23)C(=O)/C(=C/c2cn(Cc3ccc(Cl)cc3Cl)c3ccccc23)C1 , please.
Marked response: 4.83

---

# PROTOCOL_TEXT: Inhibition of porcine pancreatic lipase type 2 using p-nitrophenyl laurate as substrate after 2 hrs by UV spectrophotometric analysis
# Design: species or system Sus scrofa
MEASUREMENT_KIND: IC50

>  <SMILES>
CCOC(=O)N1C/C(=C\c2cn(Cc3cccc(Cl)c3)c3ccccc23)C(=O)/C(=C/c2cn(Cc3cccc(Cl)c3)c3ccccc23)C1

>  <MEASUREMENT_KIND>
IC50

>  <VALUE>
Not Active

$$$$
>  <SMILES>
CCOC(=O)N1C/C(=C\c2cn(Cc3ccccc3C#N)c3ccccc23)C(=O)/C(=C/c2cn(Cc3ccccc3C#N)c3ccccc23)C1

>  <MEASUREMENT_KIND>
IC50

>  <VALUE>
Not Active

$$$$
>  <SMILES>
CCOC(=O)N1C/C(=C\c2cn(Cc3ccc(Br)cc3)c3ccccc23)C(=O)/C(=C/c2cn(Cc3ccc(Br)cc3)c3ccccc23)C1

>  <MEASUREMENT_KIND>
IC50

>  <VALUE>
Not Active

$$$$
>  <SMILES>
CCOC(=O)N1C/C(=C\c2cn(Cc3ccc(-c4ccccc4C#N)cc3)c3ccccc23)C(=O)/C(=C/c2cn(Cc3ccc(-c4ccccc4C#N)cc3)c3ccccc23)C1

>  <MEASUREMENT_KIND>
IC50

>  <VALUE>
Not Active

$$$$
